- System Tested: BRD4 (Homo sapiens, UniProt O60885)
- Experimental Details: Time Resolved Fluorescence Resonance Energy Transfer (TR-FRET) binding assay, FRET BRD4
- Cond: one of the FRET assays described (BRD4 bromodomain construct not specified); read-out: FRET BRD4 IC50
pIC50: −log10 of the molar value.
Parameter pIC50: see the listing below.

Consider the following illustrative entries.
- Compound: "[2H]C([2H])([2H])c1nnn(C)c1-c1cnc2c3ccc(N4CCC(S(C)(=O)=O)CC4)cc3n(C(c3ncccc3F)C3CCOCC3)c2c1 (stereo not shown) [Example 70]"
  Endpoint: "pIC50"
  Experimental Value: "> 9.00"
- Compound: "CC(=O)N1CCC(c2ccc3c(c2)c2ncc(-c4c(C)noc4C)cc2n3[C@H](c2ccccc2)C2CCOCC2)CC1"
  Endpoint: "pIC50"
  Experimental Value: "> 9.00"
- Compound: "Cc1nnn(C)c1-c1cnc2c3cc(N4CCN(C5COC5)CC4)ccc3n([C@H](c3ccccc3)C3CCOCC3)c2c1"
  Endpoint: "pIC50"
  Experimental Value: "> 8.30"
- Compound: "Cc1nnn(C)c1-c1cnc2c3c(N4CCCS4(=O)=O)ccc(S(C)(=O)=O)c3n([C@H](c3ccccc3)C3CCOCC3)c2c1"
  Endpoint: "pIC50"
  Experimental Value: "> 9.00"
- Compound: "Cc1nnn(C)c1-c1cnc2c3ccc(C4(C)CNC(=O)O4)cc3n([C@H](c3ccccc3)C3CCOCC3)c2c1 (single isomer, unassigned) [Example 9]"
  Endpoint: "pIC50"
  Experimental Value: "> 8.30"
- Compound: "[2H]C([2H])([2H])c1nnn(C)c1-c1cnc2c3cc(N4CCS(=O)(=O)CC4)ccc3n([C@H](c3ccccc3F)C3CCOCC3)c2c1"
  Endpoint: "pIC50"
  Experimental Value: "> 5.82"
- Compound: "Cc1nnn(C)c1-c1cnc2c3cc(N4C[C@@H](C)O[C@@H](C)C4)ccc3n(C(c3ccccc3)C3CCOCC3)c2c1 (stereo in doubt)"
  Endpoint: "pIC50"
  Experimental Value: "> 8.30"
- Compound: "Cc1nnn(C)c1-c1cnc2c3ccc(N4CCS(=O)(=O)CC4)cc3n([C@H](c3ccccc3)C3CCOCC3)c2c1"
  Endpoint: "pIC50"
  Experimental Value: "> 9.00"
- Compound: "[2H]C([2H])([2H])c1nnn(C)c1-c1ccc2c3ncc(-c4c(C([2H])([2H])[2H])nnn4C)cc3n(C(c3ncccc3F)C3CCOCC3)c2c1 (stereo not shown) [Example 28]"
  Endpoint: "pIC50"
  Experimental Value: "> 8.30"
- Compound: "[2H]C([2H])([2H])c1nnn(C)c1-c1cnc2c3ccc(C4(C)COC(=O)N4)c(F)c3n([C@H](c3ccccc3)C3CCOCC3)c2c1 (stereo partly shown) [Example 56]"
  Endpoint: "pIC50"
  Experimental Value: "> 9.00"

Prompt: Return pIC50 for the following compound: `[2H]C([2H])([2H])n1nnc(OC)c1-c1ccc2c3ncc(-c4c(OC)nnn4C([2H])([2H])[2H])cc3n([C@H](c3ccccc3)C3CCOCC3)c2c1`
Completion: > 8.30

Prompt: Return pIC50 for the following compound: `[2H]C([2H])([2H])c1nnn(C)c1-c1cnc2c3cc(N4CCN(S(C)(=O)=O)CC4)ccc3n([C@H](c3ccccc3F)C3CCOCC3)c2c1`
Completion: > 8.30

Prompt: Return pIC50 for the following compound: `[2H]C([2H])([2H])c1nnn(C)c1-c1cnc2c3cc(N4CCS(=O)(=O)[C@H](C)C4)ccc3n([C@H](c3ccccc3F)C3CCOCC3)c2c1`
Completion: > 9.00

Prompt: Return pIC50 for the following compound: [2H]C([2H])([2H])c1nnn(C)c1-c1cnc2c3ccc(C4(O)CCOC4)c(F)c3n([C@H](c3ccccc3)C3CCOCC3)c2c1 (stereo partly shown) [Example 63]
Completion: > 9.00

Prompt: Return pIC50 for the following compound: `Cc1nnn(C)c1-c1cnc2c3cc(C4CCNCC4)ccc3n([C@H](c3ccccc3)C3CCOCC3)c2c1`
Completion: > 9.00

Prompt: Return pIC50 for the following compound: Cc1nnn(C)c1-c1cnc2c3ccc(N4CCC(C(F)(F)F)CC4)cc3n(C(c3ccccc3)C3CCC(F)(F)CC3)c2c1 (single isomer, unassigned) [Example 77]
Completion: > 9.00

Prompt: Return pIC50 for the following compound: `[2H]C([2H])([2H])c1nnn(C)c1-c1ccc2c3ncc(-c4c(C([2H])([2H])[2H])nnn4C)cc3n([C@H](c3ccccc3)C3CCOCC3)c2c1`
Completion: > 9.00

Prompt: Return pIC50 for the following compound: `Cc1nnn(C)c1-c1cnc2c3ccc(-c4nnn[nH]4)cc3n([C@H](c3ccccc3)C3CCOCC3)c2c1`
Completion: > 9.00

Prompt: Return pIC50 for the following compound: `[2H]C([2H])([2H])c1nnn(C)c1-c1cnc2c3cc(N4CCS(=O)(=O)CC4)ccc3n([C@H](c3ccc(F)cc3)C3CCOCC3)c2c1`
Completion: > 8.30

Prompt: Return pIC50 for the following compound: [2H]C([2H])([2H])c1nnn(C)c1-c1cnc2c3ccc(N4CCS(=O)(=O)CC4)cc3n(C(c3ncccc3F)C3CCOCC3)c2c1 (stereo not shown)
Completion: > 8.30

Prompt: Return pIC50 for the following compound: Cc1nnn(C)c1-c1cnc2c3ccc(C4(C)CNC(=O)O4)cc3n([C@H](c3ccccc3)C3CCOCC3)c2c1 (single isomer, unassigned) [Example 10]
Completion: > 8.30

Prompt: Return pIC50 for the following compound: `[2H]C([2H])([2H])c1nnn(C)c1-c1cnc2c3cc(N4CCc5ccccc5C4)ccc3n([C@H](c3ccc(F)cc3)C3CCOCC3)c2c1`
Completion: > 8.30

Prompt: Return pIC50 for the following compound: `[2H]C([2H])([2H])c1nnn(C)c1-c1cnc2c3c(N4CCCS4(=O)=O)ccc(S(C)(=O)=O)c3n([C@H](c3ccccc3)C3CCOCC3)c2c1`
Completion: > 5.82

Prompt: Return pIC50 for the following compound: `[2H]C([2H])([2H])Oc1nnn(C)c1-c1ccc2c3ncc(-c4c(OC([2H])([2H])[2H])nnn4C)cc3n([C@H](c3ccccc3)C3CCOCC3)c2c1`
Completion: > 8.30

Prompt: Return pIC50 for the following compound: `Cc1nnn(C)c1-c1cnc2c3ccc(N4CCN(C(=O)N(C)C)CC4)cc3n([C@H](c3ccccc3)C3CCOCC3)c2c1`
Completion: > 8.30
